Taken from paper PMC8776995.

biological target: wild-type EGFR (Homo sapiens, UniProt P00533); assay: EGFR kinase assay (ELISA); settings: concentration 3000 nM; one value per replicate column; 3 µM
Sequence (P00533 25-1210): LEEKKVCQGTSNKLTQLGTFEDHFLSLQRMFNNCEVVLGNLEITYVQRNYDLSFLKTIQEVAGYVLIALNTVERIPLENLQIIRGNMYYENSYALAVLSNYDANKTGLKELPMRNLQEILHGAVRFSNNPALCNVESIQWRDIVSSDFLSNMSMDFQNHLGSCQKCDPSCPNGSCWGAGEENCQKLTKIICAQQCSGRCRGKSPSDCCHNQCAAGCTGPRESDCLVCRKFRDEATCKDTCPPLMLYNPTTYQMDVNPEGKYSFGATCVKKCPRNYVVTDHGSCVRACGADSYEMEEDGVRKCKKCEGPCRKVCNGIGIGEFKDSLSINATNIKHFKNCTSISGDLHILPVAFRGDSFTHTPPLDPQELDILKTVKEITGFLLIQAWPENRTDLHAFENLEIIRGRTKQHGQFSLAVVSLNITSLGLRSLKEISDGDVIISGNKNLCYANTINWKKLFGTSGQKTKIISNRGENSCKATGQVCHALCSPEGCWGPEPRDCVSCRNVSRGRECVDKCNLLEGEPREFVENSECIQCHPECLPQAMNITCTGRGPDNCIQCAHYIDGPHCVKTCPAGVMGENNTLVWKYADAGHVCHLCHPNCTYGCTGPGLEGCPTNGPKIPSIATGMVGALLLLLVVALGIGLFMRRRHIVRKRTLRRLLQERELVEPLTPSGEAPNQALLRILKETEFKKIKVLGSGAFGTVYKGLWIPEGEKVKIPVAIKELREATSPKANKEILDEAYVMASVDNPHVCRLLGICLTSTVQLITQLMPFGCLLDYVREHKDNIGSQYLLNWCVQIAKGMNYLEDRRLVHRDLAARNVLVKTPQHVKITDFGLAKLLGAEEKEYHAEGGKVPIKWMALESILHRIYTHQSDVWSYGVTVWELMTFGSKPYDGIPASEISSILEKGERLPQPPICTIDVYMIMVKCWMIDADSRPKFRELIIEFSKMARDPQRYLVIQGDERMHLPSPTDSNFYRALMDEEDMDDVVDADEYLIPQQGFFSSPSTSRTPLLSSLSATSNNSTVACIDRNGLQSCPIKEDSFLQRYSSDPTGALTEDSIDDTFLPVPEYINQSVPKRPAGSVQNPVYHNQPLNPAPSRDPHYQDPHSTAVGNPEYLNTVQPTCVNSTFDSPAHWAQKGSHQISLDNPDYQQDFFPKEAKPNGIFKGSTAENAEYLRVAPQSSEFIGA
test_readout: Inhibition

Solved entries (count: 6):
- compound: "COCCOc1cc2ncnc(Nc3cccc(-c4cn(-c5cccc([N+](=O)[O-])c5)nn4)c3)c2cc1OCCOC [e13]"
  tested_system: "wild-type EGFR (Homo sapiens, UniProt P00533)"
  measured_result: 29.5393
- compound: "COCCOc1cc2ncnc(Nc3cccc(-c4cn(-c5ccc(C)cc5O)nn4)c3)c2cc1OCCOC [e18]"
  tested_system: "wild-type EGFR (Homo sapiens, UniProt P00533)"
  measured_result: 22.2985
- compound: "COCCOc1cc2ncnc(Nc3cccc(-c4cn(Cc5ccccc5Br)nn4)c3)c2cc1OCCOC [e3]"
  tested_system: "wild-type EGFR (Homo sapiens, UniProt P00533)"
  measured_result: 36.8664
- compound: "COCCOc1cc2ncnc(Nc3cccc(-c4cn(Cc5cc(Br)cc(Br)c5)nn4)c3)c2cc1OCCOC [e4]"
  tested_system: "wild-type EGFR (Homo sapiens, UniProt P00533)"
  measured_result: 18.75
- compound: "COCCOc1cc2ncnc(Nc3cccc(-c4cn(Cc5ccccc5I)nn4)c3)c2cc1OCCOC [e2]"
  tested_system: "wild-type EGFR (Homo sapiens, UniProt P00533)"
  measured_result: 56.4935
- compound: "CCOc1cccc(-n2cc(-c3cccc(Nc4ncnc5cc(OCCOC)c(OCCOC)cc45)c3)nn2)c1 [e14]"
  tested_system: "wild-type EGFR (Homo sapiens, UniProt P00533)"
  measured_result: 18.3486

Kindly note the recorded Inhibition for COCCOc1cc2ncnc(Nc3cccc(-c4cn(-c5ccccc5)nn4)c3)c2cc1OCCOC [e15] , which is 67.4851

Kindly note the recorded Inhibition for COCCOc1cc2ncnc(Nc3cccc(-c4cn(-c5ccc(OC)c(OC)c5)nn4)c3)c2cc1OCCOC [e19] , which is 15.5556

Kindly note the recorded Inhibition for COCCOc1cc2ncnc(Nc3cccc(-c4cn(Cc5ccccc5)nn4)c3)c2cc1OCCOC [e1] , which is 45.4545

Kindly note the recorded Inhibition for COCCOc1cc2ncnc(Nc3cccc(-c4cn(CCc5ccccc5)nn4)c3)c2cc1OCCOC [e20] , which is 51.9544

Kindly note the recorded Inhibition for COCCOc1cc2ncnc(Nc3cccc(-c4cn(-c5ccc(C)cc5)nn4)c3)c2cc1OCCOC [e12] , which is 50.5952

Kindly note the recorded Inhibition for COCCOc1cc2ncnc(Nc3cccc(-c4cn(-c5ccc(OC)cc5OC)nn4)c3)c2cc1OCCOC [e17] , which is 34.8112

Kindly note the recorded Inhibition for COCCOc1cc2ncnc(Nc3cccc(-c4cn(-c5ccccc5C(F)(F)F)nn4)c3)c2cc1OCCOC [e16] , which is 27.7165

Kindly note the recorded Inhibition for COCCOc1cc2ncnc(Nc3cccc(-c4cn(-c5ccccc5OC)nn4)c3)c2cc1OCCOC [e11] , which is 12.4481

Kindly note the recorded Inhibition for COCCOc1cc2ncnc(Nc3cccc(-c4cn(-c5ccc(Br)cc5)nn4)c3)c2cc1OCCOC [e10] , which is 48.1752

###

biological target: wild-type EGFR (Homo sapiens, UniProt P00533); experiment: EGFR kinase assay (ELISA); settings: concentration 30000 nM; one value per replicate column
Please mark Condition met if the recorded inhibition at 30 µM is equal to or greater than 80%, and Condition not met if it falls below.

(Q) Would you say COCCOc1cc2ncnc(Nc3cccc(-c4cn(-c5ccccc5)nn4)c3)c2cc1OCCOC shows inhibition at 30 µM at minimum 80%?
(A) Condition met

(Q) Would you say COCCOc1cc2ncnc(Nc3cccc(-c4cn(-c5ccc(C)cc5)nn4)c3)c2cc1OCCOC shows inhibition at 30 µM at minimum 80%?
(A) Condition met

(Q) Would you say COCCOc1cc2ncnc(Nc3cccc(-c4cn(-c5ccc(OC)cc5OC)nn4)c3)c2cc1OCCOC shows inhibition at 30 µM at minimum 80%?
(A) Condition not met

(Q) Would you say COCCOc1cc2ncnc(Nc3cccc(-c4cn(-c5ccc(C)cc5O)nn4)c3)c2cc1OCCOC shows inhibition at 30 µM at minimum 80%?
(A) Condition not met

(Q) Would you say COCCOc1cc2ncnc(Nc3cccc(-c4cn(-c5ccccc5OC)nn4)c3)c2cc1OCCOC shows inhibition at 30 µM at minimum 80%?
(A) Condition not met
